Test: qHTS assay to identify small molecule agonists of the androgen receptor (AR) signaling pathway in the presence of an antagonist - cell viability counter screen (AID 1259379); note: nearly all actives have a fitted effect of over 25% in size
Conditions: MDA-kb2 viability, CellTiter-Fluor, 16 h; series mostly up to 92.4 µM
Records with an inconclusive call do not appear. Activity calls are given as the source filed them. Calls come from the whole dose curve; as a rule, active = well fitted cell-killing curve with a large enough effect in the repeat runs; inconclusive = weak or mixed curves, or effect the other way; inactive = flat fitted curve, though single readings scatter.
Tick one outcome: yes for active, no for inactive

// below: answered molecules
# MOLECULE, DISCRETE LABEL
rows = [
    ("COC(=O)c1nc(Cl)c(Cl)nc1N", "yes"),
    ("CC(C)=CCC/C(C)=C/CC/C(C)=C/CCC(=O)OC/C=C(\\C)CCC=C(C)C", "no"),
    ("COc1ccc(OC(=O)N(CC(=O)O)Cc2ccc(OCCc3nc(-c4ccccc4)oc3C)cc2)cc1", "no"),
    ("C=C1C[C@@]23CC[C@H]4[C@@](C)(CCC[C@@]4(C)C(=O)O[C@@H]4O[C@H](CO)[C@@H](O)[C@H](O)[C@H]4O)[C@@H]2CC[C@]1(O[C@@H]1O[C@H](CO)[C@@H](O)[C@H](O[C@@H]2O[C@H](CO)[C@@H](O)[C@H](O)[C@H]2O)[C@H]1O[C@@H]1O[C@H](CO)[C@@H](O)[C@H](O)[C@H]1O)C3", "no"),
]

Problem: Hi team, can someone confirm the assay call for C=CC(C)(CCC=C(C)C)OC(=O)CC(C)C (stereo not given) ?
Solution: no
